- Test system: SK-MEL-28
- experiment_summary: NCI tumour cell line growth inhibition, 48 h
Activity calls are given as the source filed them. Rule as the data show it: active = GI50 up to about 1.1 µM and inactive = higher.
Choose the fitting class; nothing outside yes (active), no (inactive) is accepted.

-- ask GET /call?item= O=C1C(=O)N(C2C3CC4CC(C3)CC2C4)C(=O)C(=O)C1c1nc2ccccc2o1 (stereo not drawn) returns the recorded outcome of this test.
-- reply no

-- ask GET /call?item= O=C(O)C12C3C4C1C1C2C3C1(Br)C41OCCO1 (stereo not drawn) returns the recorded outcome of this test.
-- reply no

-- ask GET /call?item= CCOc1ccccc1/N=N/C1C(=O)N(C(=O)CC(=O)Nc2ccccc2C)N=C1C (stereo not drawn) returns the recorded outcome of this test.
-- reply no

-- ask GET /call?item= CCP(=O)(CC)C(Cl)(Cl)C(O)C(C)(C)C (stereo not drawn) returns the recorded outcome of this test.
-- reply no

-- ask GET /call?item= Clc1ccc2c(NCCCCCCNc3ccnc4cc(Cl)ccc34)ccnc2c1 returns the recorded outcome of this test.
-- reply no

-- ask GET /call?item= CC(=O)N(C(C)=O)n1nc2c(n1)C(=O)c1ccccc1C2=O returns the recorded outcome of this test.
-- reply no

-- ask GET /call?item= O=C(CCC(=O)Nc1ccc(Cl)c(Cl)c1)Cc1nc2ccccc2o1 returns the recorded outcome of this test.
-- reply no

-- ask GET /call?item= Cc1ccc(-n2cc(-c3ccc(Cl)cc3)c3c2N=CN2N=C(c4cccs4)NC32)cc1 (stereo not drawn) returns the recorded outcome of this test.
-- reply no

-- ask GET /call?item= CC[C@@]1(O)C(=O)OCc2c1cc1n(c2=O)Cc2cc3cc4c(cc3nc2-1)OCO4 returns the recorded outcome of this test.
-- reply yes

-- ask GET /call?item= CCOC(=O)/C=C(/OCC)[C@@H]1C(C(=O)c2ccc(Cl)cc2)[C@@H]1/C(=C\C(=O)OCC)OCC (stereo partly drawn) returns the recorded outcome of this test.
-- reply no

-- ask GET /call?item= Nc1ncc2c(n1)-c1ccccc1OC2N1CCCC1 (stereo not drawn) returns the recorded outcome of this test.
-- reply no

-- ask GET /call?item= Cc1ccc(/C=N/C23CC4CC(CC(C4)C2)C3)cc1 returns the recorded outcome of this test.
-- reply no

-- ask GET /call?item= Cn1c(-c2ccc(-c3cc(-c4cccs4)c(-c4cccs4)n3C)cc2)cc(-c2cccs2)c1-c1cccs1 returns the recorded outcome of this test.
-- reply no

-- ask GET /call?item= O=C1NC(c2ccc3ccccc3c2)Nc2ccccc21 (stereo not drawn) returns the recorded outcome of this test.
-- reply no

-- ask GET /call?item= Cc1ccccc1NC(=O)NC(Oc1ccccc1)(C(F)(F)F)C(F)(F)F returns the recorded outcome of this test.
-- reply no

-- ask GET /call?item= COc1ccc(-c2nc3ncccn3c2-c2ccc(S(C)(=O)=O)cc2)cc1 returns the recorded outcome of this test.
-- reply no

-- ask GET /call?item= C/C(=N\NC(N)=O)c1sc(-c2nc(C)c(/C(C)=N/NC(N)=O)s2)nc1C returns the recorded outcome of this test.
-- reply no

-- ask GET /call?item= CC(C)(C)C(=O)OCC1OC(N=[N+]=[N-])C(OC(=O)C(C)(C)C)C(OC(=O)C(C)(C)C)C1OC(=O)C(C)(C)C (stereo not drawn) returns the recorded outcome of this test.
-- reply no

-- ask GET /call?item= O=C(/N=N/c1ccccc1Br)NNc1ccccc1Br returns the recorded outcome of this test.
-- reply no

-- ask GET /call?item= COCn1c(C)c(C)c2c(=O)oc(=O)[nH]c21 returns the recorded outcome of this test.
-- reply no

-- ask GET /call?item= CC(=O)Oc1cc2c(n(C)c1=O)CCC2 returns the recorded outcome of this test.
-- reply no

-- ask GET /call?item= CC(=O)OC1CCC2OOC1O2 (stereo not drawn) returns the recorded outcome of this test.
-- reply no

-- ask GET /call?item= C=COCCCOc1ccccc1 returns the recorded outcome of this test.
-- reply no
